# assay-name: PK, oral administration
# Type: in vivo, male Sprague Dawley rats
# condition-details: male, Sprague Dawley, plasma, rat, 3 mg/kg
measurement-label: AUC

Query :: Requested read-out: AUC. Entry: `CN(C)Cc1ccc(S(=O)(=O)c2nnc(Nc3c4c(cc5c3CCC5)CCC4)[nH]2)cc1`
Result :: 878 ng·h/mL

====

# assay-name: PK, intravenous administration
# Assay type: in vivo
# condition-details: rat, plasma, male Sprague Dawley rats, dose about 1 mg/kg
measurement-label: AUC (ng·h/mL)
Please state the figure in ng·h/mL; there is no need to write the unit.

Query :: Requested read-out: AUC. Entry: `CCN(CC)CCCS(=O)(=O)c1nnc(Nc2c3c(cc4c2CCC4)CCC3)[nH]1`
Result :: 173

Query :: Input `COc1cc(-c2ccc3c(c2Nc2nnc(S(=O)(=O)N4CC[C@H](C(C)(C)O)C4)[nH]2)CCC3)ccn1`
Result :: 459

Query :: Input `COc1cc(-c2cc(F)cc(C(C)C)c2Oc2nnc(S(=O)(=O)N3CC4(CCN(C)C4)C3)[nH]2)ccn1`
Result :: 392

Query :: Input `CN1CCC2(CCN(S(=O)(=O)c3nnc(Nc4c5c(cc6c4CCC6)CCC5)[nH]3)CC2)C1`
Result :: 239

Query :: Input `CN1CCC2(C1)CN(S(=O)(=O)c1nnc(Nc3c(-c4ccnc(OC(F)F)c4)ccc4c3CCO4)[nH]1)C2`
Result :: 216

Query :: Input `CCN(CC)CCCS(=O)(=O)c1nnc(Nc2c(-c3ccnc(OC)c3)ccc3c2CCC3)[nH]1`
Result :: 210

Query :: Input `COc1cc(-c2cc(F)c3c(c2Nc2nnc(S(=O)(=O)N4CC5(CCN(C)C5)C4)[nH]2)CCC3)ccn1`
Result :: 195

====

# subject-of-test: NLRP3 (Homo sapiens)
# Sequence (Q96P20 whole entry): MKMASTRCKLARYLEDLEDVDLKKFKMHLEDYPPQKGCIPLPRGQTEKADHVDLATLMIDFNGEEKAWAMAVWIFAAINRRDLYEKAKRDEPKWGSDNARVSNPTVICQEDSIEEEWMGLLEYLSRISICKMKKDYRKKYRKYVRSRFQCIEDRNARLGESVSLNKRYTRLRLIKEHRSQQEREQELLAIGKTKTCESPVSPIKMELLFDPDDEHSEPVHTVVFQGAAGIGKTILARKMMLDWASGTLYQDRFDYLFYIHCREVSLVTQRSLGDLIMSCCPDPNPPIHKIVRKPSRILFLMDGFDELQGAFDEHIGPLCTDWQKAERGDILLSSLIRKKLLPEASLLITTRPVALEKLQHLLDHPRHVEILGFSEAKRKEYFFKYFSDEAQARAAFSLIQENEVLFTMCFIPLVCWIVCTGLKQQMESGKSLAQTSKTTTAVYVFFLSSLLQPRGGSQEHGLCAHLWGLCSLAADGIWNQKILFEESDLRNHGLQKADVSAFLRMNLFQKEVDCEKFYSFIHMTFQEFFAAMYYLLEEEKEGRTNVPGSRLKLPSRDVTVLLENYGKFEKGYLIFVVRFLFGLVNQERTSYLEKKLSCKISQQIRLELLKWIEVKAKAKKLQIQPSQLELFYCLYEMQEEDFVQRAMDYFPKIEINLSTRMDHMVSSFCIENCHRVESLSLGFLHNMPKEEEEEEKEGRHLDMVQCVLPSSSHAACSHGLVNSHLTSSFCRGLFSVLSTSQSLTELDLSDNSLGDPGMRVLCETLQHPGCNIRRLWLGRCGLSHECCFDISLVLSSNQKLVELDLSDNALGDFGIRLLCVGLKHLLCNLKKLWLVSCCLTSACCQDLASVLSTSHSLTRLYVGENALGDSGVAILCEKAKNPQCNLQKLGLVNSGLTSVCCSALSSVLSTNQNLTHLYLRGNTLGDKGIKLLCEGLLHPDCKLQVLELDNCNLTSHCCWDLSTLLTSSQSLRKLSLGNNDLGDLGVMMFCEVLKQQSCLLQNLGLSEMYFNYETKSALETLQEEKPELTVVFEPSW
# assay-name: THP-1 cells pyroptosis assay
# Format: cell-based
# Parameters: Seed THP-1 cells (25,000 cells/well) containing 1.0 μg/ml LPS; host or cells: THP-1
# condition-details: LPS 1.0 μg/ml, nigericin 5 μM, resazurin readout, 10 μM top dose (Example 2: top dose of 30 μM)
# Description: THP-1 cells (ATCC #TIB-202) were grown in RPMI containing L-glutamine (Gibco #11835) supplemented with imM sodium pyruvate (Sigma #S8636) and penicillin (100 units/ml)/streptomycin (0.1 mg/ml) (Sigma #P4333) in 10% Fetal Bovine Serum (FBS) (Sigma #F0804). […] The cells were then counted and viability (>90%) checked by Trypan blue (Sigma #T8154). […] The following method step-by-step assay was followed for compound screening. • 1. […] Plates were read in an Envision reader at Ex 560 nm and Em 590 nm • 9. […]
Please go through the items and note down their IC50.

Query :: Notebook: pull reported IC50 for NLRP3 (Homo sapiens), entry `CS(=O)(=O)c1nnc(Nc2c(-c3ccnc(Oc4ccccc4)c3)ccc3c2CCC3)[nH]1`
Result :: ≤ 5 µM

Query :: Input `COC(C)(C)Cn1ccc(S(=O)(=O)c2nnc(Nc3c4c(cc5c3CCC5)CCC4)[nH]2)n1`
Result :: ≤ 0.5 µM

Query :: Input `CCN1CCC12CCN(S(=O)(=O)c1nnc(Nc3c4c(cc5c3CCC5)CCC4)[nH]1)CC2`
Result :: ≤ 0.5 µM

Query :: Input CC(O)Cn1ccc(S(=O)(=O)c2nnc(Nc3c4c(cc5c3CCC5)CCC4)[nH]2)n1 (stereo not shown)
Result :: ≤ 0.5 µM
